System: MDA-MB-231 breast
Assay: NCI-60 one-dose screen, 48 h (100 = growth as untreated, 0 = no growth, -100 = all killed)
Conditions: 10 µM unless noted
Procedure: Cells are grown in 96 well plates and exposed to the test compound for 48 hours. Compounds are tested at a single concentration, which is 10^-5 M for most compounds. The reported endpoint is percent growth (GI% or GIPRCNT), where numbers from 0 - 100% represent growth inhibition, and numbers from -100% - 0 represent cell death. For example, a value of 40 represents 60% growth inhibition. A value of 0 means no net growth occurred over the course of the experiment. […]
About 83,000 compounds went through this panel and 20% of them were active in at least one assay; those are over-represented in the sample as a whole.
Quantity: growth (%)
Give the value in % but do not write % after it.

Checklist item: growth tested on MDA-MB-231 breast, entry Cc1cc(N2CCCCC2)nc(N(CCNc2ccnc3cc(Cl)ccc23)Cc2ccccn2)n1 , value? 49.6

Checklist item: growth tested on MDA-MB-231 breast, entry COc1cc(/C=C/C(=O)c2ccc(Nc3nc(Nc4ccccc4)nc(Nc4ccc(Cl)cc4)n3)cc2)cc(OC)c1OC , value? 58.1

Checklist item: growth tested on MDA-MB-231 breast, entry CCOC(=O)c1c(C)[nH]c(C(=O)CCC(=O)OC)c1C , value? 115

Checklist item: growth tested on MDA-MB-231 breast, entry C=C(C)C1CCC(=C)C2CCC3(C)OC12/C=C(/COC(C)=O)CCC3O (stereo not given) , value? 105

Checklist item: growth tested on MDA-MB-231 breast, entry O=C(NCCN1CCC(O)CC1)c1cc2c(o1)C(=O)c1ccccc1C2=O , value? -24.6

* * *

System: KM12 colon
Assay: NCI-60 one-dose screen, 48 h
Conditions: 10 µM unless noted
About 83,000 compounds went through this panel and 20% of them were active in at least one assay; those are over-represented in the sample as a whole. Calls of active or inactive are those of the source. Rule for the calls: active = growth percent below 10; inactive = the rest.
Output constraint: value belongs to active, inactive

Per the assay record, what outcome was assigned to O=C(O)c1ccccc1C(=O)Nc1ccc(Cl)cc1 ? inactive

Per the assay record, what outcome was assigned to COc1ccc(/C(C)=N/NS(=O)(=O)c2ccc(C)cc2)cc1OC ? inactive

Per the assay record, what outcome was assigned to COC(=O)[C@]12CC[C@@H](C)[C@H](C)[C@@H]1C1=CC[C@@H]3[C@@]4(C)C(C=O)=C[C@@](C)(CO)C4=CC[C@@]3(C)[C@]1(C)CC2 ? inactive

Per the assay record, what outcome was assigned to C=C(C)[C@@H]1CC[C@]2(CNCCO)CC[C@]3(C)[C@H](CC[C@@H]4[C@@]5(C)CCC(N)[C@@](C)(CO)[C@@H]5CC[C@]43C)[C@@H]12 (stereo partly drawn) ? active

Per the assay record, what outcome was assigned to Cc1cc(N(CCCNc2ccnc3cc(Cl)ccc23)Cc2ccccn2)nc(N2CCOCC2)n1 ? inactive

Per the assay record, what outcome was assigned to CCOC(=O)c1sc2ccc(NCc3nc[nH]c3C)cc2c1NC(=O)c1cc(OC)c(OC)c(OC)c1 ? inactive

Per the assay record, what outcome was assigned to CCNCCNc1cc(-c2ccc(F)cc2)c(C#N)c2nc3ccccc3n12 ? inactive

Per the assay record, what outcome was assigned to CC1=NN(c2cccc(Cl)c2)C(=O)/C1=C\c1cn(CC(O)CN2CCCCC2)c2ccccc12 (stereo not drawn) ? inactive

Per the assay record, what outcome was assigned to COc1ccc(/C=C2\COc3ccc(O)cc3C2=O)c(OC)c1 ? inactive

Per the assay record, what outcome was assigned to COc1ccc(/C(C)=C(\c2ccc(Cl)cc2)c2ccc(OCCCN(C)C)cc2)cc1F ? inactive

Per the assay record, what outcome was assigned to C=C1C(=O)O[C@H]2[C@H]1CC/C(COC(=O)NCc1ccc(Cn3c(=O)sn(CCCCl)c3=O)cc1)=C\CC[C@@]1(C)O[C@@H]21 ? inactive

Per the assay record, what outcome was assigned to COc1cccc(-c2nc3sccn3c2-c2ccnc(NCCNS(=O)(=O)c3c(Cl)cccc3Cl)c2)c1 ? inactive

Per the assay record, what outcome was assigned to CC(C)N(CCOC(=O)Nc1ccccc1Cl)C(C)C ? inactive

Per the assay record, what outcome was assigned to CCCCCCCCn1cc(C2=C(c3coc4ccc(OC)cc34)C(=O)NC2=O)c2ccccc21 ? inactive

Per the assay record, what outcome was assigned to CC(C)(C)N1CC(OC(N)=O)C1 ? inactive

Per the assay record, what outcome was assigned to CCN1CCN(c2ccc(Nc3cc(-c4cccnc4Nc4c(Cl)c(OC)cc(OC)c4Cl)ncn3)cc2)CC1 ? inactive

Per the assay record, what outcome was assigned to COc1cc2c(c(OC)c1OC)C(=O)/C(=C/c1cc(C)c(O)c(C)c1)S2 ? inactive

Per the assay record, what outcome was assigned to Cl.Fc1c[c-]c(-c2ccccn2)c(F)c1.[Pt].c1ccc([PH+](C[PH+](c2ccccc2)c2ccccc2)c2ccccc2)cc1 ? active

Per the assay record, what outcome was assigned to CCn1c(Sc2nnc(NC(=O)CCN3CCCC3)s2)nc2c1c(=O)n(C)c(=O)n2C ? inactive

Per the assay record, what outcome was assigned to O=C1CC(c2ccc3c(c2)OCO3)Nc2cc3c(cc21)OCO3 (stereo not drawn) ? inactive

Per the assay record, what outcome was assigned to O=C1C=CC(=Nc2cc(Br)c(O)c(Br)c2)C=C1 ? inactive

Per the assay record, what outcome was assigned to CCN(CC)CC(=O)Nc1cccc(C(=O)OC(C)C)c1 ? inactive

Per the assay record, what outcome was assigned to CCCCCCCCCCCCCCCCCC1=NCCN1C(=O)OCCO ? inactive

Per the assay record, what outcome was assigned to COc1ccc(/C=C(\C#N)n2nnc3ccccc32)cc1 ? active

Per the assay record, what outcome was assigned to COc1ccc(/C=N/NC(=O)Cn2c(-c3ccc(S(C)(=O)=O)cc3)nc3cc(Cl)ccc32)cc1 ? inactive

Per the assay record, what outcome was assigned to CC1(C)CC(=O)c2c(ccc(C(=O)C[C@H](N)CO)c2N)O1 ? inactive

Per the assay record, what outcome was assigned to COc1cccc(-c2cnco2)c1OCc1c(C)c(COc2c(OC)cccc2-c2cnco2)c(C)c(COc2c(OC)cccc2-c2cnco2)c1C ? inactive

Per the assay record, what outcome was assigned to COc1ccc(NC(=O)C(=O)c2c[nH]c3ccc(F)cc23)cc1 ? inactive

Per the assay record, what outcome was assigned to C=C1C(=O)O[C@H]2[C@H]1CC/C(COC(=O)/C=C\C(=O)NCc1ccc(Cn3c(=O)sn(CCCI)c3=O)cc1)=C\CC[C@@]1(C)O[C@@H]21 ? active

Per the assay record, what outcome was assigned to O=C(c1ccccc1)c1ccc(N2C(=O)C3C4c5ccccc5C(/C=C/C(=O)c5ccccn5)(c5ccccc54)C3C2=O)cc1 (stereo not drawn) ? active

Per the assay record, what outcome was assigned to O=C(NCc1cccnc1)c1cc(-c2csc3c(=O)cc(N4CCOCC4)oc23)cc2c1OCCO2 ? inactive

Per the assay record, what outcome was assigned to COc1ccc(Cn2cnc3cc(C(=O)Nc4cccc5ccccc45)ccc32)c(OC)c1 ? active

Per the assay record, what outcome was assigned to Cc1ccc(NSc2ccccc2[N+](=O)[O-])cc1 ? inactive

Per the assay record, what outcome was assigned to OC(CBr)c1ccnc2ccccc12 (stereo not drawn) ? inactive

Per the assay record, what outcome was assigned to Cc1c2c(cn1Cc1ccccc1)CCc1cn[nH]c1-2 ? inactive

Per the assay record, what outcome was assigned to Cc1cnc(Nc2ccc(OCCN3CCCC3)cc2)nc1NCc1ccco1 ? inactive

Per the assay record, what outcome was assigned to Clc1ccc(-c2nnc(Cn3ccnc3)o2)cc1 ? inactive

Per the assay record, what outcome was assigned to COC1=CC(c2ccc[nH]2)=N/C1=C\c1[nH]c(C)c(C(=O)OCCn2cc(CCC[C@@H]3Cc4cc(O)ccc4C4CC[C@]5(C)[C@@H](O)CC[C@H]5C43)nn2)c1C (stereo partly drawn) ? inactive

* * *

Tested on: SF-268 CNS
Experiment: NCI-60 one-dose screen, 48 h (100 = growth as untreated, 0 = no growth, -100 = all killed)
Conditions: 10 µM unless noted
About 83,000 compounds went through this panel and 20% of them were active in at least one assay; those are over-represented in the sample as a whole.
Please go through the items and note down their growth.
Give the value in % but do not write % after it.

Would you kindly share the measured growth for Clc1ccc(-c2nc(NCCc3ccccc3)nc3c(NCCc4ccccc4)cnn23)cc1 ? 35.1

Would you kindly share the measured growth for N=C(N)c1ccc(-c2ccc(-c3ccc(Cl)c(Cl)c3)o2)nc1 ? 98.5

Would you kindly share the measured growth for CC(=O)NCC(=O)Nc1ccc(-c2nnc3ccccn23)nc1.CC(=O)NCC(=O)Nc1ccc(-c2nnc3ccccn23)nc1.[Pt+2] ? 109

Would you kindly share the measured growth for Cc1cc(=O)c2cc3nc(-c4cccnc4)oc3c(Br)c2o1 ? 107

Would you kindly share the measured growth for [2H]c1nc(Nc2ncc(F)c(-c3cc(F)c4nc(C)n(C(C)C)c4c3)n2)c([2H])c([2H])c1CN1CCN(C([2H])([2H])C([2H])([2H])[2H])CC1 ? 64.5

Would you kindly share the measured growth for O=C1C(Cl)C(c2ccccc2Cl)N1n1cnnc1 (centres undefined) ? 102

Would you kindly share the measured growth for COc1cc2oc3cc(C)oc(=O)c3c2cc1OC ? 108

Would you kindly share the measured growth for Cc1c(Cl)cccc1NS(=O)(=O)c1ccccc1 ? 104

Would you kindly share the measured growth for O=C(CCl)N1c2cccc3cccc(c23)N(C(=O)CCl)C1c1cn(-c2ccccc2)nc1-c1cccc([N+](=O)[O-])c1 ? 99.4

Reference source: PubChem BioAssay (NCI)
